This collection of values is drawn from patent US11083197B2.

Measured Phytotoxicity at day 7, Lettuce values are reported for all entries that follow.
system: lettuce (Lactuca sativa); test: Germination / dose-response bioassay with lettuce; format: in vivo; details: 1 mM; 24-well plates; rating scale of 0 to 5
Quantity measured: Phytotoxicity at day 7, Lettuce

# Compound, Quantity measured, Reported value
rows = [
    ("O=c1ccoc2ccccc12 [Chromone, 1-benzopyran-4-one]", "Phytotoxicity at day 7, Lettuce", 3),
    ("COc1c2occc2c(OC)c2c(=O)cc(C(=O)O)oc12", "Phytotoxicity at day 7, Lettuce", 3),
    ("COc1c2occc2c(OC)c2c(=O)cc(C)oc12 [Formula III]", "Phytotoxicity at day 7, Lettuce", 3),
    ("Cc1cc(=O)c2c(O)c3ccoc3c(O)c2o1", "Phytotoxicity at day 7, Lettuce", 3),
    ("COc1c2occc2c(O)c2c(=O)cc(C)oc12", "Phytotoxicity at day 7, Lettuce", 2),
    ("COc1c2ccoc2cc2oc(C)cc(=O)c12 [Formula IV]", "Phytotoxicity at day 7, Lettuce", 3),
    ("COc1c2ccoc2cc2oc(COC3OC(CO)C(O)C(O)C3O)cc(=O)c12 (stereo not shown) [Khelloside, Khellol-glucoside]", "Phytotoxicity at day 7, Lettuce", 1),
]

###

tested on: duckweed (Lemna paucicostata); assay: Dose-response bioassay with duckweed; type: in vivo; details: Lemna aequinoctialis, frond area increase between days 1 and 7; read-out: IC50 (μM) ± SE, duckweed growth inhibition
Measured IC50 values are reported for all entries that follow.
Quantity measured: IC50 (µM)

# Smiles str, Quantity measured, Reported value
data = [
    ("COc1c2ccoc2cc2oc(C)cc(=O)c12", "IC50", 120),
    ("COc1c2occc2c(OC)c2c(=O)cc(C)oc12", "IC50", 160),
]

###

tested on: creeping bentgrass (A. stolonifera); assay: Germination bioassay with creeping bentgrass; format: in vivo, Agrostis stolonifera; design: key: 0 = no effect; 5 = no growth or germination; conditions: 1 mM; 24-well plates; rating scale of 0 to 5
Quantity measured: Phytotoxicity at day 7, Creeping bentgrass

# Compound, Reported value
data = [
    ("COc1c2occc2c(OC)c2c(=O)cc(C)oc12 [Formula III]", 5),
    ("COc1c2occc2c(OC)c2c(=O)cc(C(=O)O)oc12", 3),
    ("COc1c2ccoc2cc2oc(C)cc(=O)c12 [Formula IV]", 5),
    ("COc1c2ccoc2cc2oc(COC3OC(CO)C(O)C(O)C3O)cc(=O)c12 (stereo not shown) [Khelloside, Khellol-glucoside]", 2),
    ("O=c1ccoc2ccccc12 [Chromone, 1-benzopyran-4-one]", 4),
    ("Cc1cc(=O)c2c(O)c3ccoc3c(O)c2o1", 1),
    ("COc1c2occc2c(O)c2c(=O)cc(C)oc12", 1),
]
